Assignment: determine reported log10(IC50) for the given molecules.
- TARGET: Focal Adhesion Kinase (FAK) (Homo sapiens, UniProt Q05397)
- Sequence (Q05397 384-706): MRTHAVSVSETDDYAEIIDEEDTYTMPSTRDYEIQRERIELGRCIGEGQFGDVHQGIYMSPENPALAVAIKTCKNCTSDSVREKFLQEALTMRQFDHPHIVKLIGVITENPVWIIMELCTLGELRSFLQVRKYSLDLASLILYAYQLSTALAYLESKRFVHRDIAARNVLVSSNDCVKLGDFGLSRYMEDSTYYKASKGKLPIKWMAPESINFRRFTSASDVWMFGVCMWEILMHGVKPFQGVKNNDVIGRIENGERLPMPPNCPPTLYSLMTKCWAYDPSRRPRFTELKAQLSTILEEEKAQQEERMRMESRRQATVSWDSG
- ASSAY_OVERVIEW: FAK assay system (Focal Adhesion Kinase inhibition)
- Type: biochemical
- CONDITION_CONTEXT: read-out: FAK IC50
Record value = log10 of IC50 given in nM.

CNC(=O)c1ccccc1Nc1nc(Nc2cc(N3CCC(N4CCN(C)CC4)CC3)ccc2OC)ncc1Cl [Example 7-19] = 1.11
CCCS(=O)(=O)c1ccccc1Nc1nc(Nc2ccc(N3CCC(CO)CC3)cc2OC)ncc1Cl [Example 26-27] = 0.68
CNC(=O)c1ccccc1Nc1nc(Nc2cc(N3CCN(C(C)=O)CC3)ccc2OC)ncc1Cl [Example 7-30] = 0.32
CNS(=O)(=O)c1ccccc1Nc1nc(Nc2ccc(C)cc2F)ncc1Br [Example 3-4] = 1.51
CCCS(=O)(=O)c1ccccc1Nc1nc(Nc2ccc(N3CCC(N(C)C)C3)cc2OC)ncc1Cl (centres unmarked) [Example 26-24] = 0.00
CNC(=O)c1cc(N2CCN(C)CC2)ccc1Nc1nc(Nc2ccc(F)cc2OC)ncc1Cl [Example 16-2] = 0.78
CNC(=O)c1ccccc1Nc1nc(Nc2ccc(F)cc2OC)ncc1Br [Example 8-4] = 0.90

In the following, a different molecule is considered.
Entry under test: CNS(=O)(=O)c1ccccc1Nc1nc(Nc2ccc(N3CCN(C)CC3)cc2OC)ncc1Br [Example 3-39] . Its log10(IC50) was 0.30

* * *

Assignment: determine reported pIC50 for the given molecules.
- TARGET: FAK (Mus musculus)
- Sequence (P34152 2-1052): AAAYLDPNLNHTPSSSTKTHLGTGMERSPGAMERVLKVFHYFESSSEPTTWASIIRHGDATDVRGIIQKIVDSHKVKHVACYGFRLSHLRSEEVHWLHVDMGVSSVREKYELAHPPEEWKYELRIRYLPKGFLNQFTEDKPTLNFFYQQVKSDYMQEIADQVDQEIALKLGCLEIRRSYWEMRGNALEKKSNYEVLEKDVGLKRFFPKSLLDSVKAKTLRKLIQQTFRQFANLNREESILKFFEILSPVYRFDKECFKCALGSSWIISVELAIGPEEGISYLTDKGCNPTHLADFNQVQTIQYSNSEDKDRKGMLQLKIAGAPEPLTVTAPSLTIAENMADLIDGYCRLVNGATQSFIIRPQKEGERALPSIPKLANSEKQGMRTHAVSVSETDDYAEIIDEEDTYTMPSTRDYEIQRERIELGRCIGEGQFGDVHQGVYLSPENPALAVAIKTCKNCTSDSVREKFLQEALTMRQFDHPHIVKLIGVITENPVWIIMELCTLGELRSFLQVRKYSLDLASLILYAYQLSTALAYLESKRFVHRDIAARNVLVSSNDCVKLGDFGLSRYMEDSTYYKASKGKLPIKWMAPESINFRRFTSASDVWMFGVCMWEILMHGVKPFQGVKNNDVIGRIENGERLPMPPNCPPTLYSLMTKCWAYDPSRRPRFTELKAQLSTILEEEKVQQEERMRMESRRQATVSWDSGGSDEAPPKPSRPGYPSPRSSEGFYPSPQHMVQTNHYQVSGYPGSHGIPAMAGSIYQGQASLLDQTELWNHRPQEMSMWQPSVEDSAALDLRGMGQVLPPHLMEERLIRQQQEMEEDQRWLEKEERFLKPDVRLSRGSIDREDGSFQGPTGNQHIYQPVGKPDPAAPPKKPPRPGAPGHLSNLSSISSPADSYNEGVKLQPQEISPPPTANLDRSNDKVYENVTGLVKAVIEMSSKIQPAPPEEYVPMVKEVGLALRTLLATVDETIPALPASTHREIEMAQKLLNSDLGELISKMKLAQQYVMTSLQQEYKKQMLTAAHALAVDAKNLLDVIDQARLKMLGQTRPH
- ASSAY_OVERVIEW: Phos IC50 (phosphorylation)
One number for each entry, as −log10 of the molar value.

Would you mind giving pIC50 for every molecule in the list below?
1. COc1cc(N2CCN(C)CC2)ccc1Nc1ncc(Cl)c(Nc2ccccc2S(=O)(=O)NC(C)C)n1
2. COc1cc(N2CCN(C(C)C)CC2)ccc1Nc1ncc(Cl)c(Nc2ccccc2S(=O)(=O)C(C)C)n1
3. COc1cc(N2CCC(N3CCN(C)CC3)CC2)ccc1Nc1ncc(Cl)c(Nc2ccccc2S(=O)(=O)C(C)C)n1

Reply |
1. 6.70
2. 7.00
3. 7.00

* * *

- TARGET: FAK (Mus musculus)
- ASSAY_OVERVIEW: Phos IC50 (phosphorylation)
PROPERTY_LABEL: pIC50
Give bare numbers, as −log10 of the molar value.

Consider the reported pIC50 for these compounds:
CCNC(=O)c1ccccc1Nc1nc(Nc2ccc(N3CCOCC3)cc2OC)ncc1Cl [Example 9-5] = 6.44
CCC(CC)S(=O)(=O)c1ccccc1Nc1nc(Nc2ccc(N3CCOCC3)cc2OC)ncc1Cl [Example 29-1] = 6.15
CNC(=O)c1ccccc1Nc1nc(Nc2cccc3c2ccn3C)ncc1Cl [Example 7-28] = 6.00
CNS(=O)(=O)c1ccccc1Nc1nc(Nc2cc(-c3cccc(OC)c3)ccc2C)ncc1Br [Example 3-28] = 6.15
COc1cc(CN2CCN(C)CC2)ccc1Nc1ncc(Cl)c(Nc2ccccc2S(=O)(=O)C2CC2)n1 [Example 30-5] = 5.70
CNS(=O)(=O)c1ccccc1Nc1nc(Nc2ccc(N3CCN(C(C)=O)CC3)cc2OC)ncc1Cl [Example 20-2] = 6.92
COc1cc(N2CCC[C@@H](C(N)=O)C2)ccc1Nc1ncc(Cl)c(Nc2ccccc2S(=O)(=O)C2CC2)n1 [Example 30-6] = 6.00
COc1cc(F)ccc1Nc1ncc(Cl)c(Nc2ccccc2S(=O)(=O)NC(C)C)n1 [Example 19-6] = 6.00

Would you mind giving pIC50 for every compound in the list below?
1. COc1cc(NCC(C)(C)CO)ccc1Nc1ncc(Cl)c(Nc2ccccc2S(=O)(=O)NC(C)C)n1 [Example 19-22]
2. COc1cc(N2CCC[C@H](C(N)=O)C2)ccc1Nc1ncc(Cl)c(Nc2ccccc2S(=O)(=O)C(C)C)n1 [Example 28-27]
3. CNS(=O)(=O)c1ccccc1Nc1nc(Nc2ccc(N3CCNCC3)cc2OC)ncc1Br [Example 3-47]

Reply |
[6.92, 6.52, 7.00]
